Catalogue of pKd readings, one per entry.
system_tested: BC2-Nb
Sequence (as listed by the source): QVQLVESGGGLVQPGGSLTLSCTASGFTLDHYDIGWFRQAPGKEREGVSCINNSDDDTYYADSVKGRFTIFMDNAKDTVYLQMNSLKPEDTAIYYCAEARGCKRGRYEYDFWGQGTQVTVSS
protocol_summary: Biolayer interferometry of immobilised biotinylated BC2T peptides with BC2-Nb
Type: binding, Vicugna pacos
details: biotinylated peptide on Streptavidin biosensor, BC2-Nb 5-50 nM, 1:1 binding model
pKd: −log10 of the molar value.
measured_endpoint: pKd

[[record]]
residue_sequence = "PDRVRAVSHWSS [pTag1]"
measured_endpoint = "pKd"
reading = 9.15

[[record]]
residue_sequence = "ADRVRAVSHWSS [pTag2]"
measured_endpoint = "pKd"
reading = 8.72

[[record]]
residue_sequence = "PDRKAAVSHWQQ [BC2T]"
measured_endpoint = "pKd"
reading = 8.59

